# ASSAY METHOD TEXT: Toxicity liver stage against HepG2, at 10uM
# Assay type: cell-based
# Parameters: test concentration 10 uM, cell line HepG2-A16-CD81EGFP
# EXPERIMENTAL PARAMETERS: human, HepG2-A16-CD81EGFP cells; read-out: INHIBITION
MEASURE: cytotoxicity at 10 µM (%)

Cn1cc(-c2cc(C(F)F)n3nc(CCC(=O)O)nc3n2)cn1	1.61
Cc1ncc(CNCCO)c2cc(C(=O)c3ccc(Br)cc3)oc12	15.2
O=C(c1cnccn1)N1CCC(Oc2ncccc2Cl)CC1	0.566
CCc1oc(C(=O)NC(C)c2ncn[nH]2)cc1CN1CCCC1 (stereo not drawn)	-5.92
CC(C)(C(=O)NCCCC(N)=O)c1cccc(Br)c1	4.23
CCOc1ccc(OC2CCCN(c3cnn(C)c3)C2=O)cc1 (stereo not drawn)	0.118
Cn1cc(CN2CC[C@@H]3[C@@H](CO[C@H]3CNC(=O)c3ccco3)C2)cn1	-142
CCCc1cc(C(=O)N(Cc2cccnc2)C2CCCCC2)[nH]n1	-11.2
CCN(Cc1ccccn1)Cc1cc(Cl)ccc1OC	1.45
CS(=O)(=O)N1Cc2ccccc2C2(CCN(C(=O)c3ccno3)CC2)C1	6.31
Cc1cnn(CC2CCCN2C(=O)Cc2c(C)noc2Cl)c1 (stereo not drawn)	0.471
COCCCSc1ccc(NC(=O)Nc2cn[nH]c2)cc1	2.54
COCC1CN(CC2CC2)Cc2nn(C)cc21 (stereo not drawn)	0.281
CC(C)c1nc2c(n1C)CCN(CCCc1nc3ccccc3o1)C2	2.07
O=C1CN(C(=O)CCn2c(C(F)(F)F)cc3cccnc32)CCN1	-13
Cc1nocc1C(=O)N1CCc2c(CN(C)C(C)C)n[nH]c2C1	-12.3
CC(=O)NCc1nnc2n1CCN(c1ncnc3c(C)csc13)CC2	4.71
Cc1cc(C)n(CC2CN(c3ncnc4[nH]ccc34)CCO2)n1 (stereo not drawn)	-6.88
CCN1CCCCC1C(=O)N1CCN(C(=O)OC)CC1 (stereo not drawn)	-4.81
CC(C)C[C@H](NC(=O)CNC(=O)OC(C)(C)C)C(=O)OC(C)(C)C	11.9
COc1ccc(C(C)C)cc1C1CC(=O)NCc2nc(N(C)C)sc21 (stereo not drawn)	-1.22
CCc1noc(CN2CCN(CCO)CC2)n1	-6.13
COc1cc(CNCCn2cccn2)c2c(c1)CC(C)O2 (stereo not drawn)	13.7
COCCn1cc(C(=O)N2CCCC2c2ccncc2)c2ccccc21 (stereo not drawn)	10.7
CN1CC2(CCC(C(=O)N3CCOCC3)CC2)Oc2ccccc2C1=O (stereo not drawn)	5.91
CCc1n[nH]c(C2CN(CCS(C)(=O)=O)CCO2)n1 (stereo not drawn)	-18
COc1c(NS(=O)(=O)c2ccc(C)c(C)c2)c(C)nn1C	3.73
CC(=O)Nc1cc(-c2cccc(F)c2F)n[nH]1	-0.305
Cc1ccc(S(=O)(=O)Nc2ccc(N3CCOCC3)cn2)cc1	3.92
O=C1CCCN1c1cccc(CNCc2nc(C3CC3)no2)c1	-7.11
c1cc(COC[C@]23COC[C@H]2CN(CC2CCC2)C3)ccn1	-77.1
COc1c(C2CCCN2C(=O)c2ccnc(N(C)C)c2)c(C)nn1C (stereo not drawn)	1.9
CCc1nc(C)c(C(=O)NCCN2CCCC2)s1	1.94
CCc1ccc(CN2CCC3(CC2)NC(=O)CC3c2ccncc2)o1 (stereo not drawn)	1.83
Cn1cccc(NC(=O)NCCOCc2ccccc2)c1=O	-37.8
CN(C)c1ccc(CC2CCN(c3cnccn3)CC2)nn1	2.29
CC(=O)N1CCO[C@@H]2CN(Cc3ccccc3Cl)C[C@@H]2C1	-110
Cc1noc(C)c1CN(C)CC(=O)Nc1ccnn1C(C)C1CC1 (stereo not drawn)	-2.82
O=C(c1cccs1)N1C[C@@H]2OCCN(CC3CCCO3)[C@@H]2C1 (stereo partly drawn)	-2.24
Cc1nc(CN2CCCC(c3cc(C(N)=O)[nH]n3)C2)oc1C (stereo not drawn)	-31.2
COCC[C@]1(O)CCN(Cc2nc(C)cs2)C[C@H]1C	10.5
O=C1NCc2ccccc2CC12CCCN(CCCc1ccccc1)C2 (stereo not drawn)	10.3
Cc1ccc(CNC(=O)c2oc3ccccc3c2CN(C)C)n1C	0.521
NC(=O)C1CCN(C(=O)CCCc2ccc(Cl)c(Cl)c2)CC1	5.34
COc1cc(CN(C)C(C)c2ccccn2)cc2c1OCO2 (stereo not drawn)	8.97
CCOc1ccc(C(=O)NCc2ccnc(N3CCCC3)c2)cn1	6.62
Cn1nnnc1SCCC(=O)NCC(C)(C)c1ccccc1F	5.68
CNC(=O)CN1CCC(NC(=O)N(C)Cc2cc(C)on2)CC1	-0.626

* * *

# ASSAY METHOD TEXT: Toxicity liver stage against HepG2, at 10uM
# Assay type: cell-based
# Set-up: test concentration 10 uM, cell line HepG2-A16-CD81EGFP
# EXPERIMENTAL PARAMETERS: human, HepG2-A16-CD81EGFP cells; read-out: INHIBITION
MEASURE: cytotoxicity at 10 µM

O=C(c1cc2c(s1)CCN2C(=O)C1CC1)N1CCCC1	2.62%
Cc1ccccc1-n1cc(C2=CCN(CCN3CCOCC3)CC2)cn1	-5.06%
Cc1cnn(CCCNC(=O)NC(C)C(=O)Nc2ccccc2)c1 (configuration not stated)	7.04%
Cn1ccnc1CN1CCC(Cn2cc(-c3ccccc3)nn2)CC1	0.959%
Cc1noc(C)c1CN1CCN(CC2CC2)c2ncccc2C1	5.56%
Cc1cc(C)cc(CCC(=O)NC(C)c2nnn[nH]2)c1 (configuration not stated)	0.686%
CCc1c(C)sc(NC(=O)CN2CCOCC2)c1C(=O)OC	19.3%
CN1C(=O)C(c2cccnc2)CC12CCN(C(=O)c1cccn1C)CC2 (configuration not stated)	-16.4%
CCOCCn1nnc(C2(NC(=O)c3ccccc3)CCCC2)n1	21.9%
CCc1nc(CN2CCCN(C(=O)C(C)COC)CC2)cs1 (configuration not stated)	-0.884%
CSCc1cc(F)ccc1CNC(=O)N1CCC[C@@H]1CO	4.8%
CNS(=O)(=O)Cc1ccc(CNc2cncc(-n3cccn3)n2)cc1	-4.66%

* * *

Overview of reported cytotoxicity at 10 µM across a group of compounds:
# ASSAY METHOD TEXT: Toxicity liver stage against HepG2, at 10uM
# Format: cell-based
# Design: test concentration 10 uM, cell line HepG2-A16-CD81EGFP
# EXPERIMENTAL PARAMETERS: human, HepG2-A16-CD81EGFP cells; read-out: INHIBITION
MEASURE: cytotoxicity at 10 µM (%)

Cc1noc(C)c1-c1cccc(C2CCN(CC(=O)N(C)C)CC2)n1	6.33
COCCn1cc(NC(=O)NCC(c2cccc(F)c2)N(C)C)cn1 (stereo unspecified)	-5.6
CCn1nc(C)c2ncnc(N3CCCC(C)C3)c21 (stereo unspecified)	9.18
COC(=O)C(C)(C)NC(=O)C1CC(=O)N(C2CC2)C1 (stereo unspecified)	-139
CC(=O)N1CCN(C(=O)CNc2c(C)cccc2OC(F)F)CC1	3.24
N#CCc1ccc(NC(=O)CNc2ccc(Br)cc2F)cc1	0.997

* * *

# ASSAY METHOD TEXT: Toxicity liver stage against HepG2, at 10uM
# Assay type: cell-based
# Set-up: test concentration 10 uM, cell line HepG2-A16-CD81EGFP
# EXPERIMENTAL PARAMETERS: human, HepG2-A16-CD81EGFP cells; read-out: INHIBITION
MEASURE: cytotoxicity at 10 µM (%)

CCn1nc(C)cc1C(=O)NCc1noc(C(C)(C)C)n1	8.7
CC(CNC(=O)N(C)Cc1ccco1)N1CCc2sccc2C1 (stereo unspecified)	-13.7
CN(C)[C@@H]1CCN(c2ncccn2)[C@H]1Cc1ccccc1	-9.29
Cc1cc(-c2ccccc2C(=O)O)nc(C2CCCN2S(C)(=O)=O)n1 (stereo unspecified)	-3.67
CNC(=O)[C@@H]1C[C@H](n2cc(-c3ccc(Cl)cc3)nn2)CN1	5.89
O=C1O[C@@H]2CN(c3ccccn3)C[C@@H]2N1CCCc1ccc(F)cc1	-2.88

* * *

# ASSAY METHOD TEXT: Toxicity liver stage against HepG2, at 10uM
# Format: cell-based
# Set-up: test concentration 10 uM, cell line HepG2-A16-CD81EGFP
# EXPERIMENTAL PARAMETERS: human, HepG2-A16-CD81EGFP cells; read-out: INHIBITION
Measured cytotoxicity at 10 µM, listed per entry.
MEASURE: cytotoxicity at 10 µM (%)

CCNC(=O)C(C)NC(=O)Nc1ccccc1SC(F)(F)F (stereo unspecified)	-9.5
C1CN(c2nc3c(c(NC4CC4)n2)CN(CC2CCOC2)CC3)CCO1 (stereo unspecified)	-2.22
CN(CC(N)=O)C(=O)c1cn(-c2ccc(Br)cc2)cn1	6.85
CCc1nc(C2CCCN(C(=O)c3ccc4[nH]nnc4c3)C2)no1 (stereo unspecified)	2.67
Cc1noc(C2CCCN(C(=O)c3scnc3Cl)C2)n1 (stereo unspecified)	17.2
CC(=O)NCCC(=O)N(C/C=C/c1ccccc1)CCO	4.1
